Quick list: IC50 per entry.
Molecular target: Cdc7/Dbf4 (Homo sapiens)
Sequence (O00311 whole entry, species assumed): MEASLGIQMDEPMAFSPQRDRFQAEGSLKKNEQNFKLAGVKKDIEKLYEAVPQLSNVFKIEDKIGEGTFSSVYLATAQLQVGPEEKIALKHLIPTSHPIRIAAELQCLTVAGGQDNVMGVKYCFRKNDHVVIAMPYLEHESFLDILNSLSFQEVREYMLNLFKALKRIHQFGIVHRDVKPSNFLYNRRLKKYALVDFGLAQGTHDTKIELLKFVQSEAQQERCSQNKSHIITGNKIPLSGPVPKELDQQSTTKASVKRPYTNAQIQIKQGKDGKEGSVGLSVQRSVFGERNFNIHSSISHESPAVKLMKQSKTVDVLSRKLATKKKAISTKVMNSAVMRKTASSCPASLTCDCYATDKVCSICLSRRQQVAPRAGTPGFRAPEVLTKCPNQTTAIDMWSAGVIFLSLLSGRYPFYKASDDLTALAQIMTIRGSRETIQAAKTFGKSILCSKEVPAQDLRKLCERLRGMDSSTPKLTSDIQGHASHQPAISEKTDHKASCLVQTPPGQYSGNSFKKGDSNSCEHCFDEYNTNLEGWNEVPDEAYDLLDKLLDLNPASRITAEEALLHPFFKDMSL
Sequence (Q9UBU7 whole entry partner, species assumed): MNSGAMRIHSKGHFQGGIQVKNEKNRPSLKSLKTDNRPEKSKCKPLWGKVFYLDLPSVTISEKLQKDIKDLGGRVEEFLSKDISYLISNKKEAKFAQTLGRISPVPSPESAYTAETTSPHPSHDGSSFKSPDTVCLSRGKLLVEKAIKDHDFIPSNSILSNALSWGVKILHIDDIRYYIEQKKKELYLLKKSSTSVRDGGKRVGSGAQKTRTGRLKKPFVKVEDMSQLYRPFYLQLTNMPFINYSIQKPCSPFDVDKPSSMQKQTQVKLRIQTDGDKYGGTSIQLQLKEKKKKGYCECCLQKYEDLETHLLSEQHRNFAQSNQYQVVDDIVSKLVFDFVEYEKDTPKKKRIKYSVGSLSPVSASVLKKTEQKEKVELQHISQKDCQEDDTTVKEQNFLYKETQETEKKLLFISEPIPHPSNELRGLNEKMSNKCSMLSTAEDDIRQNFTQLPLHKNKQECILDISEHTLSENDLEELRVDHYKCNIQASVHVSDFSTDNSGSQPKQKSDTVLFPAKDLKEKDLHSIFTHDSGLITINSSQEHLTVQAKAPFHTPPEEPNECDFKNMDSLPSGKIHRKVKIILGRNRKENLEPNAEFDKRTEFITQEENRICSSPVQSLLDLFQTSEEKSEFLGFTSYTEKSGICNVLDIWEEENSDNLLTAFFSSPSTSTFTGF
Assay: Inhibition assay of Cdc7/Dbf4 activity (Dowex resin capture, 33P-ATP, MCM2 substrate)
Conditions: MCM2 6 μM, ATP 2 μM, Cdc7/Dbf4 2 nM, 60 minutes at room temperature
Where a name gives a salt, the structure may show the parent alone.
reported endpoint: IC50 (nM)

1. O=C1NCCc2[nH]c(-c3ncnc4[nH]cnc34)cc21 [hydrochloride] :: 200
2. O=C1NCC(c2ccccc2)c2[nH]c(-c3ncnc4[nH]cnc34)cc21 (stereo not drawn) [hydrochloride] :: 90
3. Nc1nccc(-c2[nH]c3c(c2I)C(=O)NCC3)n1 :: 4
4. CCCNc1nccc(-c2cc3c([nH]2)CCNC3=O)n1 :: 310
5. CC1Cc2[nH]c(-c3ccnc(N)n3)cc2C(=O)N1 (stereo not drawn) :: 26
6. Nc1nccc(-c2cc3c([nH]2)CCNC3=O)n1 [hydrochloride] :: 11
7. CC(C)CC1Cc2[nH]c(-c3ccnc(N)n3)cc2C(=O)N1 (stereo not drawn) :: 4
8. CC1(C)Cc2[nH]c(-c3ccnc(N)n3)cc2C(=O)N1 [hydrochloride] :: 32
9. CC(C)C1CNC(=O)c2cc(-c3ccnc(N)n3)[nH]c21 (stereo not drawn) :: 8
10. CC(=O)Nc1ccc(CNc2nccc(-c3cc4c([nH]3)CCNC4=O)n2)cc1 [trifluoroacetate] :: 300
11. CC(C)C1Cc2[nH]c(-c3ccnc(N)n3)cc2C(=O)N1 (stereo not drawn) :: 9
12. O=C1NCCc2[nH]c(-c3ccncn3)cc21 [hydrochloride] :: 19
13. CCC1(CC)CNC(=O)c2cc(-c3ccnc(N)n3)[nH]c21 :: 7
14. O=C(Nc1nccc(-c2cc3c([nH]2)CCNC3=O)n1)c1ccccc1 :: 300
15. CC1CNC(=O)c2cc(-c3ccnc(N)n3)[nH]c21 (single isomer, unassigned) :: 5
16. O=C1NCC(c2ccccc2)c2[nH]c(-c3ccnc(Nc4ccccc4)n3)cc21 (stereo not drawn) [hydrochloride] :: 29
17. Nc1nccc(-c2cc3c([nH]2)C(c2ccccc2)CNC3=O)n1 (stereo not drawn) [hydrochloride] :: 15
18. CC1(C)CNC(=O)c2cc(-c3ccnc(N)n3)[nH]c21 :: 2
19. O=C1NCCc2[nH]c(-c3ccnc(Nc4ccccc4)n3)cc21 [hydrochloride] :: 7
20. CCOC(=O)Nc1nccc(-c2cc3c([nH]2)CCNC3=O)n1 :: 80
21. O=C1NCCc2[nH]c(-c3ccnc(NCc4ccccc4)n3)cc21 :: 270

Entry source: patent US7279575B2
